Recorded log10 of IC50, one value per entry.
Test system: HSV-1
PROTOCOL NOTES: HSV Antiviral (ELISA) Assay
Format: cell-based, herpes simplex virus type 1
TEST CONDITIONS: Human alphaherpesvirus 1, Vero, Vero cells, HSV-1; read-out: IC50 Ug/ml HSV
MEASUREMENT LABEL: log10 of IC50 (log10 of the value in µg/mL)

>>> observed_value("COc1cc(O)c(NC(=S)Nc2ccc(NC(C)=O)cc2)cc1Cl [Example 839]")
1.00
>>> observed_value("COc1cc(OC)c(NC(=S)Nc2ccc(NC(C)=O)c(C)c2)cc1Cl [Example 309]")
0.90
>>> observed_value("CC(=O)Nc1ccc(NC(=S)Nc2ccc(NC3CCN(Cc4ccccc4)CC3)c(Cl)c2)cc1 [Example 315]")
0.90
>>> observed_value("COc1ccc(NC(=S)Nc2ccc(NC(C)=O)cc2)cc1Cl [Example 106]")
0.48
>>> observed_value("CC(=O)Nc1ccc(NC(=S)Nc2ccc(NCCN(C)C)c(Cl)c2)cc1 [Example 316]")
1.48
>>> observed_value("CCC(C)Oc1ccc(NC(=S)Nc2ccc(NC(C)=O)cc2)cc1Cl (stereo not drawn) [Example 252]")
1.00
>>> observed_value("COc1c(Br)cc(NC(=S)Nc2ccc(NC(C)=O)cc2)c(OC)c1Br [Example 894]")
1.08
>>> observed_value("CC(=O)Nc1ccc(NC(=S)Nc2cc(Cl)c(OCC(=O)OC(C)(C)C)c(Cl)c2)cc1 [Example 887]")
1.65
>>> observed_value("CC(=O)Nc1ccc(NC(=S)Nc2cc(Cl)ccc2Cl)cc1 [Example 930]")
1.00
>>> observed_value("CC(=O)Nc1ccc(NC(=S)Nc2ccc(Cl)c(C(F)(F)F)c2)cc1 [Example 112]")
0.70
